Study Target: Uracil nucleotide/cysteinyl leukotriene receptor (Homo sapiens)
Sequence (Q13304 whole entry): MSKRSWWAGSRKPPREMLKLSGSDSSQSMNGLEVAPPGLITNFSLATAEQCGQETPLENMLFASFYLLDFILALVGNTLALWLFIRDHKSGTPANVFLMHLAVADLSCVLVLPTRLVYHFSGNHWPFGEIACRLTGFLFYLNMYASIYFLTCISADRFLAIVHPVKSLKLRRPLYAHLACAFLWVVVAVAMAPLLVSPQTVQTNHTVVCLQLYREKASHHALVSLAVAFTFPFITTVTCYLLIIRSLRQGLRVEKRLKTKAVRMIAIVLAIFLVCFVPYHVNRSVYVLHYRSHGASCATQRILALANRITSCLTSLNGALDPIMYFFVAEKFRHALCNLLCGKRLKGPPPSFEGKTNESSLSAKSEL
Test Details: Agonist activity at human GPR17 receptor transfected in 1321N1 astrocytoma cells assessed as induction of intracellular calcium mobilization by fluorimetric assay
log10 EC50 by entry:
# log10 transformed; quantity=EC50; unit=µM

- Smiles Entry: "O=C(O)CCc1c(C(=O)O)[nH]c2cc(Br)ccc12"
  log10 EC50: 0.35
- Smiles Entry: "O=C(O)CCc1c(C(=O)O)[nH]c2cccc(Br)c12"
  log10 EC50: 1.66
- Smiles Entry: "O=C(O)CCc1c(C(=O)O)[nH]c2cc(Cl)cc(Cl)c12"
  log10 EC50: -0.48
- Smiles Entry: "O=C(O)CCc1c(C(=O)O)[nH]c2cccc(I)c12"
  log10 EC50: 1.57
- Smiles Entry: "O=C(O)CCc1c(C(=O)O)[nH]c2cc(C(F)(F)F)cc(C(F)(F)F)c12"
  log10 EC50: 1.23

Could you share which log10 EC50 value was measured for O=C(O)CCc1c(C(=O)O)[nH]c2cc(Br)cc(Br)c12 ?
-0.69

// query: O=C(O)CCc1c(C(=O)O)[nH]c2cc(Cl)c(F)c(Cl)c12
1.72

Origin of the recorded values: ChEMBL document CHEMBL3132791
